# PROTOCOL DETAILS: gradient 5% acetonitrile 3 min, to 50% in 2 min, to 85% in 15 min, held 3 min, 100 µL/min
# CONDITION DETAILS: column: Zorbax Extend-C18 2.1 x 50 mm; eluents: water / acetonitrile, 0.1% formic acid
The following compounds are listed with their measured RP-LC retention time values.
Please give the number followed by its unit.

Study these solved cases before continuing.
INSERT INTO assay_data (compound, outcome_measure, measured) VALUES
  ('O=C(Nc1ccc(Br)cc1F)C1CCN(S(=O)(=O)Cc2ccccc2)CC1', 'RP-LC retention time', '1000 s'),
  ('COc1ccc(NC(=O)COc2ccc(-c3nnc4n3CCCC4)cc2)cc1OC', 'RP-LC retention time', '626 s'),
  ('CCCc1nc(-c2c(C)cc(C)nc2NC(=O)c2ccc(F)cc2)no1', 'RP-LC retention time', '864 s'),
  ('CCCn1cc(C(=O)NCC(=O)OCC)c(S(=O)(=O)N2CCN(c3ccc(Cl)cc3)CC2)n1', 'RP-LC retention time', '1040 s'),
  ('Cc1cc(C)cc(C(=O)Nc2ccc3c(c2)Sc2ncccc2C(=O)N3C)c1', 'RP-LC retention time', '888 s');

Provide one value: measured RP-LC retention time of O=C1CCCN2N=C(SCc3ccc([N+](=O)[O-])cc3)SC2=N1
779 s

Annotate the compound CN(CCc1noc(C2CN(Cc3cc(Cl)ccc3F)C2)n1)S(C)(=O)=O with its measured RP-LC retention time.
608 s

Hello, please tell me recorded RP-LC retention time for this one: CN1C(=O)NC2(CCN(C(=O)C3c4ccccc4Oc4ccccc43)CC2)C1=O
705 s

Give the reported RP-LC retention time for this compound. CCn1cc(-c2ccc(Cl)cc2)cc1C(=O)N1CCN(C(C)C)CC1
717 s

Given O=C1CC(c2noc(-c3ccc4c(c3)OCO4)n2)CN1c1ccc(F)cc1 (stereo not drawn) , respond with its RP-LC retention time.
1200 s

# return recorded RP-LC retention time for entry O=C(Cn1cccc(S(=O)(=O)N2CCCCCC2)c1=O)N1CCCc2ccccc21
850 s
